Entry source: patent US20260193326A1

- targetOrTestSystem: T1, AAV9
- T1 construct: also called adeno-associated virus serotype 9
- measurementDescription: SPR, AAV on CM5 chip;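 further: surface plasmon resonance with AAV amine-coupled to the chip as ligand, nanobodies injected as analyte over a concentration series, rate constants and affinity fitted from binding curves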
pKd: −log10 of the molar value.
Threshold check on pKd: at or above 8 gives Criterion met, strictly below gives Criterion not met.

binder	category
A4-030 (VHH) VHH: VQLQESGGGLVQPGGSLRLSCAASGSSFTINTMGWYRQAPGKQRELVAAVTRGGSTNYAGSVKGRFTISRDNAKNTIYLQMNSLRPEDTAVYYCHVDEIRQSSWTTSNLWGQGTQVTVSS	Criterion not met
A4-050 (VHH) VHH: VQLQESGGGLVQPGGSLRLSCAASGSSFVINTMGWYRQAPGKQRELVAAVTRGGSTNYADSVKGRFTISRDNAKNTVYLQMNSLRPEDTAVYYCHVDEVRQSSWTTSNLWGQGTQVTVSS	Criterion met
A4-010 (VHH) VHH: VQLQESGGGLVQAGGSLRLSCAASGSIFSINSMGWYRQAPGKQRELVATVTRGGNTNYADSVKGRFTISRDNAKNTVYLQMNSLRPEDTAVYYCHVDEVRESSWTTSNLWGQGTQVTVSS	Criterion not met
A4-018 (VHH) VHH: VQLQESGGGLVQAGGSLRLSCAASGSRFSINTMGWYRQAPGKQREFVATVTRGGNTNYAESVKGRFTISRDNAKNTVYLQMNSLRPEDTAVYYCHVDEVRDSSWTTSNIWGQGTQVTVSS	Criterion not met
A4-045 (VHH) VHH: VQLQESGGGLVQPGGSLRLSCAASGSSFSINTMGWYRQAPGKQRELVAAVTRGGVTNYADSVKGRFTISRDNAKNTVYLQMNSLRPEDTAVYYCHVDEVRQSSWTTSNLWGQGTQVTVSS	Criterion not met

# input Answer whether pKd of A4-004 (VHH) VHH: VQLQESGGGLVQPGGSLRLSCAASGSRFSINTMGWYRQAPGKQRELVAAVTRGGSTNYAGSVKGRFTISRDNAKNTVYLQMNSLRPEDTAVYYCHIDEVRQSSWTTSNIWGQGTQVTVSS is greater than or equal to 8.
# output Criterion met

# input Does the reported pKd for A4-037 (VHH) VHH: VQLQESGGGLVQPGGSLRLSCAASGSIFSINTMGWYRQAPGKQRELVATVTRGGSTNYAGSVKGRFTISRDNAKNTVYLQMNSLRPEDTAVYYCHLDEVRQSSWTTSNIWGQGTQVTVSS fall at or above the 8 mark?
# output Criterion met

# input Evaluate A4-033 (VHH) VHH: VQLQESGGGLVQPGGSLRLSCVASGSSFSINTMGWYRRAPGKQRELVATVTRDGSTNYANSVKGRFTISRDNAKNTVYLQMNSLRPEDTAVYYCHVDEVRQSSWTTSNLWGQGTQVTVSS : pKd at minimum 8?
# output Criterion not met

# input Is it the case that A4-001 (VHH) VHH: VQLQESGGGLVQPGGSLRLSCAASGRSFSINTMGWYRQAPGKQRELVATVTRGGSTNYAGSVKGRFTISRDNAKNTVYLQMNSLRPEDTAVYYCHIDEVRQSSWTTSNIWGQGTQVTVSS has pKd reaching or exceeding 8?
# output Criterion not met

# input Does A4-028 (VHH) VHH: VQLQESGGGLVQPGGSLRLSCAASGSNFSINTMGWYRQAPGKQRELVATVTRGGDTNYADSVKGRFTISRDNAKNTVYLQMNSLRPEDTAVYYCHVDEIRESSWTTSNLWGQGTQVTVSS have a reported pKd of at least 8?
# output Criterion met

# input Given the entry A4-024 (VHH) VHH: VQLQESGGGLVQPGGSLRLSCAASGSNFRINTMGWYRQAPGKQRELVATVTRGGSTNYADSVKGRFTISRDNPKNTVYLQMNSLRPEDTAVYYCHVDEVRESSWTTSNLWGQGTQVTVSS , answer whether its pKd meets or surpasses 8.
# output Criterion not met

# input Determine whether measured pKd meets or exceeds 8 for A4-048 (VHH) VHH: VQLQESGGGLVQPGGSLRLSCAASGSMFSINTMGWYRQAPGKQRELVATVTRGGNTNYAGSVKGRFTISRDNAKNTVYLQMNSLRPEDTAVYYCHVDEVRQSSWTTSNLWGQGTQVTVSS
# output Criterion not met
